pKi for Carbonic anhydrase 9 (Homo sapiens) - collated from the literature.
Schema: pKi number; meaning minus log10 of the concentration expressed in molar units.

Below are worked cases with known answers.
O=C(O)CCC(=O)Nc1ccc2[nH]c(=O)n(O)c(=O)c2c1 | 7.19
O=C(Nc1ccccc1)Nc1ccc2[nH]c(=O)n(O)c(=O)c2c1 | 6.52
NS(=O)(=O)c1ccc(C(=O)N2CCN(C(=O)c3cccc(F)c3)CC2)cc1 | 8.42
CCCN(CCC)S(=O)(=O)c1ccc(C(=O)NCCCN2CCOCC2)cc1 | 6.67
NS(=O)(=O)c1cnccc1Sc1nnns1 | 8.11

Kindly consider the entry below.
Exam item: Report the value of pKi obtained on Carbonic anhydrase 9 (Homo sapiens) for `Cc1ccc(C(F)(F)S(N)(=O)=O)cc1` .
Marked response: 6.60
